# System: AGS cells
# test_description: Cellular reduced glutathione (GSH) content of AGS cells
# Assay type: cell-based, human
# condition_notes: post-confluent AGS, 4 h; 125 µM; control 13.6 ± 0.7
readout_label: GSH

C=C1CCC2[C@](C)(CCC[C@]2(C)C(=O)OC)[C@H]1CC[C@@H](C)CC(=O)OC1=C(CCC(C)C)C(=O)C2=C(CCCC2)C1=O (stereo partly shown) = 13.7 ± 1.0 nmol/10^6 cells

* * *

# test_description: Cytotoxicity, neutral red uptake assay, MRC-5
# Type: cell-based
# condition_notes: human, MRC-5 lung fibroblasts, confluent monolayer, confluent MRC-5, 24 h, read-out: IC50 ± SD, cytotoxicity MRC-5
# log10 of IC50 at 24 h per entry
readout_label: log10 of IC50 at 24 h (log10 of the value in µM)

CC1=C(CC[C@@H](C)CC(=O)OC2=C(CCC(C)C)C(=O)c3ccccc3C2=O)[C@@]2(C)CCC[C@](C)(C(=O)O)C2CC1 (some centres unmarked) = 2.78
C=C1CCC2[C@](C)(CCC[C@]2(C)C(=O)O)[C@H]1CC[C@@H](C)CC(=O)O (some centres unmarked) = 2.64
CC(C)=CCC1=C(OC(=O)C[C@H](C)CC[C@H]2[C@@H](C)CCC3[C@]2(C)CCC[C@]3(C)C(=O)O)C(=O)C2=C(CCCC2)C1=O (some centres unmarked) = 1.64
COC(=O)[C@@]1(C)CCC[C@]2(C)C(CC[C@@H](C)CC(=O)OC3=C(CCC(C)C)C(=O)c4ccccc4C3=O)=C(C)CCC12 (some centres unmarked) = 2.93
CC(C)=CCC1=C(OC(=O)C[C@H](C)CC[C@H]2[C@@H](C)CCC3[C@]2(C)CCC[C@]3(C)C(=O)O)C(=O)c2ccccc2C1=O (stereo partly drawn) [Compound 13, Lapachoyl 17β-dihydrojunicedrate] = 2.55
C=C1CCC2[C@](C)(CCC[C@]2(C)C(=O)O)[C@H]1CC[C@@H](C)CC(=O)OC1=C(CC=C(C)C)C(=O)c2ccccc2C1=O (some centres unmarked) [Compound 7, Lapachoyl junicedrate] = 2.34
C=C1CCC2[C@](C)(CCC[C@]2(C)C(=O)OC)[C@H]1CC[C@@H](C)CC(=O)OC1=C(CCC(C)C)C(=O)C2=C(CCCC2)C1=O (some centres unmarked) = 2.82
COC(=O)[C@@]1(C)CCC[C@@]2(C)C1CC[C@H](C)[C@@H]2CC[C@@H](C)CC(=O)OC1=C(CCC(C)C)C(=O)c2ccccc2C1=O (some centres unmarked) = 2.78

* * *

# IC50 at 24 h per entry
# test_description: Cytotoxicity, neutral red uptake assay, AGS
# Format: cell-based
# condition_notes: human, AGS gastric epithelial cells, confluent monolayer, read-out: IC50 ± SD, cytotoxicity AGS
# Protocol: Human lung fibroblasts MRC-5 (ATCC CCL-171) were grown in minimum essential Eagle medium (MEM) with Earles’s salts and 2 mM L-glutamine (Sigma-Aldrich Co.). Human epithelial gastric cells AGS (ATCC CRL-1739) were grown in Ham F-12 medium containing 1 mM L-glutamine. […] Cytotoxicity values were required as a reference to determine the working concentrations in the subsequent experiments. […] Cell viability was determined at the end of the incubation by means of the neutral red uptake (NRU) assay. […]
readout_label: IC50 at 24 h

CC(C)=CCC1=C(OC(=O)C[C@H](C)CCC2=C(C)CCC3[C@@](C)(C(=O)O)CCC[C@]23C)C(=O)c2ccccc2C1=O (stereo partly shown) [Compound 19, Lapachoyl Δ8(9) junicedrate] = 148 µM
CC(C)=CCC1=C(OC(=O)C[C@H](C)CC[C@H]2[C@@H](C)CCC3[C@]2(C)CCC[C@]3(C)C(=O)O)C(=O)c2ccccc2C1=O (stereo partly drawn) [Compound 13, Lapachoyl 17β-dihydrojunicedrate] = 351 µM
COC(=O)[C@@]1(C)CCC[C@@]2(C)C1CC[C@H](C)[C@@H]2CC[C@@H](C)CC(=O)OC1=C(CC=C(C)C)C(=O)C2=C(CCCC2)C1=O (stereo partly shown) [Compound 18] = 884 µM
CC(CCC1C(C)CCC2C(C)(C(=O)O)CCCC12C)CC(=O)O (stereo not drawn) [Compound 6, 17β-Dihydrojunicedric acid] = 283 µM
C=C1CCC2[C@](C)(CCC[C@]2(C)C(=O)OC)[C@H]1CC[C@@H](C)CC(=O)OC1=C(CCC(C)C)C(=O)c2ccccc2C1=O (stereo partly shown) [Compound 10] = 659 µM
CC1=C(CC[C@@H](C)CC(=O)OC2=C(CCC(C)C)C(=O)C3=C(CCCC3)C2=O)[C@@]2(C)CCC[C@](C)(C(=O)O)C2CC1 (stereo partly shown) [Compound 23] = 29 µM
C=C1CCC2[C@](C)(CCC[C@]2(C)C(=O)OC)[C@H]1CC[C@@H](C)CC(=O)OC1=C(CC=C(C)C)C(=O)c2ccccc2C1=O (stereo partly shown) [Compound 8, Lapachoyl junicedrate methyl ester] = > 1000 µM
CC1=C(CC[C@@H](C)CC(=O)OC2=C(CCC(C)C)C(=O)c3ccccc3C2=O)[C@@]2(C)CCC[C@](C)(C(=O)O)C2CC1 (stereo partly shown) [Compound 21] = 278 µM
CC1=C(CC[C@@H](C)CC(=O)O)[C@@]2(C)CCC[C@](C)(C(=O)O)C2CC1 (stereo partly shown) [Compound 5, Δ8(9) Junicedric acid] = 666 µM
CC(C)=CCC1=C(O)C(=O)c2ccccc2C1=O [Compound 1, Lapachol] = 571 µM
Cc1c(OCC(F)(F)F)ccnc1C[S+]([O-])c1nc2ccccc2[nH]1 (stereo not shown) [Lansoprazole, reference compound] = 168 µM
COC(=O)[C@@]1(C)CCC[C@]2(C)C(CC[C@@H](C)CC(=O)OC3=C(CC=C(C)C)C(=O)c4ccccc4C3=O)=C(C)CCC12 (stereo partly shown) [Compound 20, Lapachoyl Δ8(9) junicedrate methyl ester] = 321 µM
C=C1CCC2[C@](C)(CCC[C@]2(C)C(=O)O)[C@H]1CC[C@@H](C)CC(=O)OC1=C(CC=C(C)C)C(=O)c2ccccc2C1=O (stereo partly shown) [Compound 7, Lapachoyl junicedrate] = 143 µM
C=C1CCC2[C@](C)(CCC[C@]2(C)C(=O)O)[C@H]1CC[C@@H](C)CC(=O)OC1=C(CCC(C)C)C(=O)C2=C(CCCC2)C1=O (stereo partly shown) [Compound 11] = 63 µM
COC(=O)[C@@]1(C)CCC[C@]2(C)C(CC[C@@H](C)CC(=O)OC3=C(CCC(C)C)C(=O)C4=C(CCCC4)C3=O)=C(C)CCC12 (stereo partly shown) [Compound 24] = > 1000 µM
CC(C)=CCC1=C(OC(=O)C[C@H](C)CC[C@H]2[C@@H](C)CCC3[C@]2(C)CCC[C@]3(C)C(=O)O)C(=O)C2=C(CCCC2)C1=O (stereo partly shown) [Compound 17] = 60 µM
C=C1CCC2[C@](C)(CCC[C@]2(C)C(=O)OC)[C@H]1CC[C@@H](C)CC(=O)OC1=C(CCC(C)C)C(=O)C2=C(CCCC2)C1=O (stereo partly shown) [Compound 12] = > 1000 µM
CC(C)CCC1=C(O)C(=O)C2=C(CCCC2)C1=O [Compound 3, Dihydroprenyl-5,6,7,8-tetrahydrolapachol] = 87 µM
CC(C)CCC1=C(OC(=O)C[C@H](C)CC[C@H]2[C@@H](C)CCC3[C@]2(C)CCC[C@]3(C)C(=O)O)C(=O)c2ccccc2C1=O (stereo partly shown) [Compound 15] = > 1000 µM
CC(C)CCC1=C(O)C(=O)c2ccccc2C1=O [Compound 2, Dihydroprenyl lapachol] = 292 µM
COC(=O)[C@@]1(C)CCC[C@@]2(C)C1CC[C@H](C)[C@@H]2CC[C@@H](C)CC(=O)OC1=C(CCC(C)C)C(=O)c2ccccc2C1=O (stereo partly shown) [Compound 16] = 643 µM
COC(=O)[C@@]1(C)CCC[C@@]2(C)C1CC[C@H](C)[C@@H]2CC[C@@H](C)CC(=O)OC1=C(CC=C(C)C)C(=O)c2ccccc2C1=O (stereo partly shown) [Compound 14] = 916 µM
COC(=O)[C@@]1(C)CCC[C@]2(C)C(CC[C@@H](C)CC(=O)OC3=C(CCC(C)C)C(=O)c4ccccc4C3=O)=C(C)CCC12 (stereo partly shown) [Compound 22] = 340 µM
C=C1CCC2[C@](C)(CCC[C@]2(C)C(=O)O)[C@H]1CC[C@@H](C)CC(=O)OC1=C(CCC(C)C)C(=O)c2ccccc2C1=O (stereo partly shown) [Compound 9, Dihydroprenyl lapachol junicedrate] = 49 µM
C=C1CCC2[C@](C)(CCC[C@]2(C)C(=O)O)[C@H]1CC[C@@H](C)CC(=O)O (stereo partly shown) [Compound 4, Junicedric acid] = 383 µM

Where do these numbers come from? They come from paper PMC6270338.
